Numbers sourced from ChEMBL document CHEMBL1130247.

- Method notes: Antiviral activity against human rhinovirus 14 (HRV-14) using CPE/XTT assay in human tumor cell lines.
- Format: organism-based, human rhinovirus type 14
- Measurement setup: read-out: TC50 (the source's name)
Measurement name: CC50 (µg/mL)
Answer format: numeric, µg/mL implied, no suffix.

C#C/C=C(/c1ccc2nc(N)n(S(=O)(=O)C(C)C)c2c1)c1ccccc1F = 66

# evaluate next
What CC50 value was documented for this molecule, C#C/C=C(\c1ccccc1)c1cc2c(cc1F)nc(N)n2S(=O)(=O)C(C)C ?
13

====

- Tested on: Coxsackievirus
- Method notes: Antiviral activity against coxsackie virus A21
- Format: functional, organism-based
We'd kindly ask you to apply these IC50 classes: bottom range = under 0.08 µg/mL, center range = from 0.08 µg/mL up to 0.2 µg/mL, top range = 0.2 µg/mL and over

C#C/C=C(\c1cccc(F)c1)c1ccc2nc(N)n(S(=O)(=O)N(C)C)c2c1 = center range
C#C/C=C(/c1ccc2nc(N)n(S(=O)(=O)C(C)C)c2c1)c1cc(F)ccc1F = bottom range
C#C/C=C(\c1ccc(N(C)C)cc1)c1ccc2nc(N)n(S(=O)(=O)C(C)C)c2c1 = center range
C#C/C=C(\c1ccc(F)cc1)c1ccc2nc(N)n(S(=O)(=O)C(C)C)c2c1 = center range
C#C/C=C(\c1ccc(F)c(F)c1)c1ccc2nc(N)n(S(=O)(=O)C(C)C)c2c1 = top range

Sort CC#C/C=C(\c1cccc(F)c1)c1ccc2nc(N)n(S(=O)(=O)C(C)C)c2c1 into one of the categories.
top range

Sort C#C/C=C(\c1cccc(F)c1)c1ccc2nc(N)n(S(=O)(=O)C(C)C)c2c1 into one of the categories.
center range

Sort C#C/C=C(\c1ccccc1)c1ccc2nc(N)n(S(=O)(=O)C(C)C)c2c1 into one of the categories.
bottom range

Sort C#C/C=C(\c1ccc(OC(F)(F)F)cc1)c1ccc2nc(N)n(S(=O)(=O)C(C)C)c2c1 into one of the categories.
top range

Sort C#C/C=C(\c1cccc(Cl)c1)c1ccc2nc(N)n(S(=O)(=O)C(C)C)c2c1 into one of the categories.
top range

Sort C#C/C=C(\c1ccc(OC)c(F)c1)c1ccc2nc(N)n(S(=O)(=O)C(C)C)c2c1 into one of the categories.
bottom range

Sort C#C/C=C(\c1ccc(OC)cc1)c1ccc2nc(N)n(S(=O)(=O)C(C)C)c2c1 into one of the categories.
bottom range

Sort C#C/C=C(\c1cc(F)cc(F)c1)c1ccc2nc(N)n(S(=O)(=O)C(C)C)c2c1 into one of the categories.
center range

====

- Method notes: Antiviral activity against human rhinovirus 14 (HRV-14) using CPE/XTT assay in human tumor cell lines.
- Format: organism-based, human rhinovirus type 14
- Measurement setup: read-out: TC50 (the source's name)
Measurement name: log10(CC50) (log10 of the value in µg/mL)
A value of 2 here means CC50 of 100 in µg/mL, since values are log10.

Look over these answered cases.
C#C/C=C(/c1ccc2nc(N)n(S(=O)(=O)C(C)C)c2c1)c1cc(F)ccc1F = 1.80
CC#C/C=C(\c1cccc(F)c1)c1ccc2nc(N)n(S(=O)(=O)C(C)C)c2c1 = 0.49
C#C/C=C(\c1ccc(C)cc1)c1ccc2nc(N)n(S(=O)(=O)C(C)C)c2c1 = 0.76
CC(C)S(=O)(=O)n1c(N)nc2ccc(C(=O)c3cccc(F)c3)cc21 = 1.20
C#C/C=C(\c1cccc(Cl)c1)c1ccc2nc(N)n(S(=O)(=O)C(C)C)c2c1 = 1.30
C#C/C=C(\c1ccc(N(C)C)cc1)c1ccc2nc(N)n(S(=O)(=O)C(C)C)c2c1 = 0.72
C#C/C=C(\c1ccc(OC(F)(F)F)cc1)c1ccc2nc(N)n(S(=O)(=O)C(C)C)c2c1 = 1.26

What log10(CC50) value was documented for this compound, C#C/C=C(\c1ccccc1)c1ccc2nc(N)n(S(=O)(=O)C(C)C)c2c1F ?
1.76
